- ASSAY SYSTEM: T1, 4H963-AA
- T1 chain: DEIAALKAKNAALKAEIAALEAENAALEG
- ASSAY PROTOCOL: two-hybrid library CCmax;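 note: natural log of median RNA to DNA barcode read ratio; higher means stronger binding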
- RUN CONDITIONS: mean of both orientations
PROPERTY: interaction score
Provide a numeric answer; units are not to be included.

Take a look at these entries with their results.
[
  {
    "BINDER": "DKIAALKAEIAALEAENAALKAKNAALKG [4H2592-AA]",
    "interaction score": -0.435
  },
  {
    "BINDER": "DENAALKAENAALKAEIAALKAEIAALKG [4H1738-AA]",
    "interaction score": -1.8
  },
  {
    "BINDER": "DKIAALEAENAALEAKIAALKAENAALEG [4H2219-AA]",
    "interaction score": 0.45
  },
  {
    "BINDER": "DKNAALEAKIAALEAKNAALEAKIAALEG [4H3381-AA]",
    "interaction score": -2.17
  },
  {
    "BINDER": "DEIAALEAKIAALKAENAALKAENAALEG [4H347-AA]",
    "interaction score": -1.41
  },
  {
    "BINDER": "DENAALKAEIAALKAKIAALEAKNAALEG [4H1639-AA]",
    "interaction score": -2.16
  }
]

Now take the following binder into account.
Problem: Request the reported interaction score associated with DKNAALEAKIAALEAEIAALKAENAALKG [4H3340-AA]
Result: -2.28
